Data provenance is patent US4185152A.

Kindly supply the reported LD50 values for the records listed here.
- testProtocol: approximate LD50 (acute toxicity, antiradiation activity table)
- conditionNotes: mouse, in vivo, ip; mice, intraperitoneal; monohydrochloride salt

Reported LD50, molecule Cl.Ic1ccc(OCCCCCCCN2CCSC2)nc1 [I 7] : ____
~200 mg/kg

Entry to check: Brc1ccc(OCCCCCCCCN2CCSC2)nc1.Cl [Br 8]
~230 mg/kg

Entry to check: Brc1ccc(OCCCCCN2CCSC2)nc1.Cl [Br 5]
~240 mg/kg

Entry to check: Cl.Ic1ccc(OCCCCN2CCSC2)nc1 [I 4]
> 300 mg/kg

Entry to check: Brc1ccc(OCCCN2CCSC2)nc1.Cl [Br 3]
~250 mg/kg

Entry to check: Cl.Ic1ccc(OCCCCCN2CCSC2)nc1 [I 5]
~230 mg/kg
